Where these numbers come from: ChEMBL document CHEMBL1800055

Experiment: Oral bioavailability in rat at 10 mg/mL
Format: ADME, organism-based
Details: in vivo
Hi there, I'd appreciate the recorded bioavailability for every entry that follows.
Give bare numbers, in %.

Below are worked cases with known answers.
INSERT INTO results (structure_smiles, endpoint_label, measured_value) VALUES
  ('O=C(NO)C1(S(=O)(=O)c2ccc(Oc3ccc(Cl)cc3)cc2)CCOCC1', 'bioavailability', 45.8),
  ('O=C(NO)C1(S(=O)(=O)c2ccc(Oc3ccncc3)cc2)CCOCC1', 'bioavailability', 42.3);

Then there is this compound:
What bioavailability value was documented for this compound, O=C(NO)C1(S(=O)(=O)c2ccc(Oc3ccc(OC(F)(F)F)cc3)cc2)CCOCC1 ?
35.9
